tested on: pigweed (Amaranthus retroflexus); assay: Test D pre-/postemergence plant response; type: in vivo; conditions: Postemergence, 16 g ai/ha
quantity.name: Plant response rating (scale 0 to 100), Pigweed
Answers are plain numbers.

| input.smiles | recorded.number |
| --- | --- |
| Fc1cccc(Oc2ncc(Cl)cn2)c1-c1cc(C(F)(F)F)no1 | 85 |
| CC(F)(F)c1cc(-c2ccccc2Oc2ncc(Cl)cn2)on1 | 80 |
| FC(Cl)(Cl)c1cc(-c2ccccc2Oc2ncc(Cl)cn2)no1 | 85 |
| CC(F)(F)c1cc(-c2ccccc2Oc2ncc(Cl)cn2)no1 | 85 |
| FC(F)c1cc(-c2ccccc2Oc2ncc(Br)cn2)on1 | 100 |

# batch size: 2; output Plant response rating (scale 0 to 100), Pigweed per entry
1. Clc1cnc(Oc2ccccc2-c2cc(Cl)sn2)nc1
2. Clc1cnc(Oc2ccccc2-c2ccon2)nc1

1. 15
2. 10

# batch size: 2; output Plant response rating (scale 0 to 100), Pigweed per entry
1. FC(F)c1cc(-c2c(Cl)cccc2Oc2ncc(Cl)cn2)no1
2. Clc1cnc(Oc2ccccc2-c2cc(C3CC3)on2)nc1

1: 80; 2: 55
